# log10(Kd) listing for each entry below
- Experimental Target: T1, human myostatin (human, UniProt O14793 267-375, biotinylated in selections and radioactive assays (site not stated))
- T1 construct: Phage ELISA used both unbiotinylated and biotinylated myostatin; also called biotinylated human myostatin; myostatin-biotin
- T1 sequence (looked up): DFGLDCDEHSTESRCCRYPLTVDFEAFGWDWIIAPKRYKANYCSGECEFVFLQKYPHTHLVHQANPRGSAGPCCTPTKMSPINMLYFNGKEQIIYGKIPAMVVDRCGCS
- Measurement Description: radioactive equilibrium binding assay
Recall that a logarithmic scale is used here: each number is log10 of Kd in nM.

Please review the entries below; each comes with its answer.
{"columns": ["Binder", "log10(Kd)"],
 "data": [
  ["39973-D2 (designed binder, group M3-A) MTIPEIIIKVRGTQVVGSDMTVIVEFYFSPGARLATVWVHLDGPGVTRPMKKMFHSIYVPFWVQWEEVVRPWVSGHRKLIASMTTTVQGHVYGELDVQIQRRDYKDDDDK", 1.52],
  ["39888-B7 (designed binder, group M3-A) MTIPEIIIKVRGTQVVGSDMTVIVEFTNPLKETLRNVWVHLDGPGVTRPMKKMFPAIPMNHKVQWEEVVRPWVSGHRKLIASMNSSSNQHVYGELDVQIQRRDYKDDDDK", 0.85],
  ["39888-G5 (S82I) (designed binder, group M1-A; S82I) MTIPEIIIKVRGTQVVGSDMTVIVEFTNPLKETLRNVWVHLDGPGVTRPMKKMFPAIPMNHKVQWEEVVRPWVSGHRKLIAIMPQLFHIHVYGELDVQIQRRDYKDDDDK", 1.00],
  ["39633-D6 (designed binder, group M3-A50; ΔS82, M83R; also called M020 (clone ID)) MTIPEIIIKVRGTQVVGSDMTVIVEFTNPFKETLRNVWVHLDGPGVTRPMKKMFCEIRPNSIVQWEEVVRPWVSGHRKLIARCSLSPWHVYGELDVQIQRRDYKDDDDK", 1.31],
  ["39885-H9 (designed binder, group M2-A) MTIPEIIIKVRGTQVVGSDMTVIVEFTNPLKETLRNVWVHLDGPGVTRPMKKMFPAIPMNHKVQWEEVVRPWVSGHRKLIASMINYFYNHVYGELDVQIQRRDYKDDDDK", 1.15],
  ["39885-F7 (designed binder, group M1-A) MTIPEIIIKVRGTQVVGSDMTVIVEFTNPLKETLRNVWVHLDGPGVTRPMKKMFPTIPMNHKVQWEEVVRPWVSGHRKLIASMPHLFHIHVYGELDVQIQRRDYKDDDDK", 1.38],
  ["39633-H6 (M50V) (designed binder, group M2-A50; M50V) MTIPEIIIKVRGTQVVGSDMTVIVEFTNPFKETLRSVWVHLDGPGVTRPVKKMFREIPPKTTVQWEEVVRPWVSGHRKLIASMPSLLHLHVYGELDVQIQRRDYKDDDDK", 1.39],
  ["39908-E5 (designed binder, group M3-A50; ΔS82, M83R; also called M56 (clone ID)) MTIPEIIIKVRGTQVVGSDMTVIVEFSNPFKETLRNVWVHLDGPGVTRPMKKMFSEIRPNSTVQWEEVVRPWVSGHRKLIARCSLSPWHVYGELDVQIQRRDYKDDDDK", 1.34]
]}

Lab note: measured log10(Kd) of 39633-G5 (designed binder, group M1-A50; V91L) MTIPEIIIKVRGTQVVGSDMTVIVEFTNPFKETLRSVWVHLDGPGVTRPMKKMFSEIRPNSTVQWEEVVRPWVSGHRKLIASMRTQYLIHLYGELDVQIQRRDYKDDDDK was 1.53

For 39633-C5 (designed binder, group M1-A50; V91L; also called M34 (clone ID)) MTIPEIIIKVRGTQVVGSDMTVIVEFTNPFKETLRSVWVHLDGPGVTRPMKKMFRVIPPKTTVQWEEVVRPWVSGHRKLIASMRTQYLIHLYGELDVQIQRRDYKDDDDK the binder record lists log10(Kd) as 1.49

The binder listed as 39633-E2 (designed binder, group M1-A50; V91L) MTIPEIIIKVRGTQVVGSDMTVIVEFSNPFKETLRNVWVHLDGPGVTRPMKKMFCEVRPNSVVQWEEVVRPWVSGHRKLIASMRTQYLIHLYGELDVQIQRRDYKDDDDK shows log10(Kd) equal to 1.44

Lab book: log10(Kd) of 39885-F10 (S82C) (designed binder, group M1-A; S82C) MTIPEIIIKVRGTQVVGSDMTVIVEFTNPLKETLRNVWVHLDGPGVTRPMKKMFPAIPMNHKVQWEEVVRPWVSGHRKLIACMPQLFHIHVYGELDVQIQRRDYKDDDDK noted as 1.19

Entry 39908-F5 (designed binder, group M3-A50; ΔS82, M83R; also called M16 (clone ID)) MTIPEIIIKVRGTQVVGSDMTVIVEFTNPFKETLRNVWVHLDGPGVTRPMKKMFCEIRPNSIVQWEEVVRPWVSGHRKLIARCQLLPWHVYGELDVQIQRRDYKDDDDK , log10(Kd) reported as 1.43

Field log10(Kd) (entry 45927-A12 (designed binder, group M3-Aext) MTIPEIIIKVRGTQVVGSDMTVIVEFTNPLRVSEQTLRNVWVHLDGLGVTRPMKKMFGGIRVHSTVQWEEVVRPWVSGHRKLIASMSYVAEYGEWTHYSVYGELDVQIQRRDYKDDDDK ) reads 0.17

Entry under test: 39633-F4 (designed binder, group M1-A50; V91L) MTIPEIIIKVRGTQVVGSDMTVIVEFSNPFKETLRNVWVHLDGPGVTRPMKKMFCEIRPNSIVQWEEVVRPWVSGHRKLIASMRTQYLIHLYGELDVQIQRRDYKDDDDK . Its log10(Kd) was 1.43

Entry under test: 39908-B2 (designed binder, group M3-A50; ΔS82, M83R; also called M07 (clone ID)) MTIPEIIIKVRGTQVVGSDMTVIVEFTNPFKETLRSVWVHLDGPGVTRPMKKMFREIPPKTTVQWEEVVRPWVSGHRKLIARCQLLPWHVYGELDVQIQRRDYKDDDDK . Its log10(Kd) was 1.43
